// provenance: ChEMBL document CHEMBL1139369

Listed next: entries and their corresponding EC90.
Test system: Hepatitis C virus
Assay Explanation: Antiviral activity against HCV by genotype 1 replicon based cellular assay
Assay type: functional, Hepacivirus hominis
Answer in nM, number only, no unit symbol.

In the examples that follow, each entry is paired with its recorded EC90.
CC(C)(C)OC(=O)[C@@H](NC(=O)N[C@H]1CCCCCCCCCC[C@@H](C(=O)C(N)=O)NC(=O)[C@@H]2[C@H]3[C@@H](CN2C1=O)C3(C)C)C(C)(C)C
400
CN(C)C(=O)[C@@H](NC(=O)CNC(=O)C(=O)[C@@H]1CCCCCCCCCC[C@H](NC(=O)OC(C)(C)C)C(=O)N2CC3C([C@H]2C(=O)N1)C3(C)C)c1ccccc1 (single isomer, unassigned)
600
CN(C[C@@H](NC(=O)N[C@H]1CCCCCCCCC[C@@H](C(=O)C(N)=O)NC(=O)[C@@H]2[C@H]3[C@@H](CN2C1=O)C3(C)C)C(C)(C)C)S(=O)(=O)c1cccs1
70
C=CCNC(=O)C(=O)[C@@H]1CCCCCCCCC[C@H](NC(=O)N[C@H](CN2C(=O)c3ccccc3C2=O)C(C)(C)C)C(=O)N2CC3C([C@H]2C(=O)N1)C3(C)C (single isomer, unassigned)
100

Let's switch to this compound now.
According to the records, this compound C=CCNC(=O)C(=O)[C@@H]1CCCCCCCCC[C@H](NC(=O)N[C@H](CN2CCC(C)(C)CC2=O)C(C)(C)C)C(=O)N2C[C@@H]3[C@H]([C@H]2C(=O)N1)C3(C)C displays EC90 of 20
